- assay-comment: qHTS for Inhibitors of TGF-b: Cytotox Counterscreen; also: potency is read from the fitted curve at half-maximal effect
- condition-set: HepG2 CAGA-GFP viability, ATP luminescence, 18 h; series mostly up to 46.1 µM
Hit rate of the full screen: of about 410,000 compounds, about 3,100 (0.76%) were called active. Many of the other results were omitted from the sample, so actives are more common in it than they were.
reported-property: Potency

// below: answered molecules
[[record]]
molecule = "CCOC(=O)Nc1ccc2c(c1)N(C(=O)CN1CCN3CCCC3C1)c1ccccc1CC2 (stereo unspecified)"
result = "inactive"

[[record]]
molecule = "COc1ccc(CC(=O)NCc2nnc(SCC(=O)Nc3ncc(C)s3)n2C)cc1"
result = "inactive"

[[record]]
molecule = "CCOC(=O)c1ccc(N2C(=O)c3n[nH]c(C)c3C2c2ccc(O)c(OC)c2)cc1 (stereo unspecified)"
result = "inactive"

[[record]]
molecule = "c1ccc(C[C@H]2CNCCN2CCC23CC4CC(CC(C4)C2)C3)cc1"
result = "inactive"

[[record]]
molecule = "CCOC(=O)c1cnc2sccn2c1=O"
result = "inactive"

[[record]]
molecule = "CC1CCN(S(=O)(=O)c2ccc3c(ccn3CCC(=O)NCc3ccc(N(C)C)cc3)c2)CC1"
result = "inactive"


Shift focus to the following entry.
Noted for NC(Cc1ccc(F)cc1)c1csc(Nc2nncc3ccccc23)n1 (stereo unspecified) : its Potency reads 15.8 µM (active)

###

- assay-comment: qHTS for Inhibitors of TGF-b: Cytotox Counterscreen; also: potency is read from the fitted curve at half-maximal effect
- condition-set: HepG2 CAGA-GFP viability, ATP luminescence, 18 h; series mostly up to 46.1 µM
Screen size: about 410,000 compounds; about 3,100 (0.76%) were called active. The sample holds actives, similar compounds and a random draw of the others, so the mix is not that of the screen.
reported-property: Potency

[[record]]
compound = "CCOC(=O)c1scc(-c2ccccc2)c1S(=O)(=O)Nc1ccccc1F"
reported_property = "Potency"
result = "inactive"

[[record]]
compound = "CCOC(=O)c1c(-c2ccc(C)cc2C)csc1NC(=O)CSc1nnnn1C"
reported_property = "Potency"
result = "inactive"

[[record]]
compound = "CC(C)(C)c1ccc(C(=O)NCC(c2ccco2)S(=O)(=O)c2ccc(F)cc2)cc1 (centres undefined)"
reported_property = "Potency"
result = "inactive"

[[record]]
compound = "CCCS(=O)(=O)c1ncc(Cl)c(C(=O)Nc2scc(-c3ccccc3)c2C(=O)OCC)n1"
reported_property = "Potency"
result = "11.2 µM (active)"


###

- assay-comment: qHTS for Inhibitors of TGF-b: Cytotox Counterscreen
- condition-set: HepG2 CAGA-GFP viability, ATP luminescence, 18 h; series mostly up to 46.1 µM
Hit rate of the full screen: of about 410,000 compounds, about 3,100 (0.76%) were called active. The call rests on the fitted dose curve; in most records, active means well fitted cell-killing curve with a large enough effect; inactive means no such curve, though single readings can be large or run the other way. What follows is part of a selection rich in actives, with near analogues and random picks from the rest.
Your answer must be one of the following: 1 (active), -1 (inactive)

Would you please look over these solved cases?
[[record]]
molecule = "CCN1CCCC1CNC(=O)c1ccc2c(c1)NC(=O)/C(=C\\c1ccccc1F)S2 (configuration not stated)"
assigned_label = 1

[[record]]
molecule = "C=COC(=O)N1CCN(/[N+]([O-])=N/Oc2ccc([N+](=O)[O-])cc2[N+](=O)[O-])CC1"
assigned_label = -1

[[record]]
molecule = "CCc1ccc(NC(=O)C2CCCN2S(=O)(=O)c2ccc3nc(-c4ccccc4)[nH]c3c2)cc1 (configuration not stated)"
assigned_label = -1

[[record]]
molecule = "CC1=C(C(=O)N2CCN(c3cccc(C(F)(F)F)c3)CC2)C2(CCCCC2)OC1=O"
assigned_label = -1


// next entry
input: Query: recorded result category for "Cc1cccc(NC(=O)c2nc(S(=O)(=O)Cc3ccccc3)ncc2Cl)c1" in this test
output: 1

All values here come from PubChem BioAssay AID588856.
